Measured pIC50 values are reported for all entries that follow.
Molecular target: SMYD3 (Homo sapiens (Human))
Assay: SMYD3 biochemical assay (SPA, 3H-SAM methylation of MEKK2 protein substrate)
Conditions: Table 2A; read-out: SMYD3 Biochem IC50
Quick note: pIC50 means taking -log10 of the concentration in moles per liter.

| Structure Smiles | pIC50 |
| --- | --- |
| CN1C2CC1CN(S(=O)(=O)N1[C@@H]3CC[C@H]1C[C@@H](NC(=O)c1cc(C4CC4)on1)C3)C2 | 8.00 |
| CNCCNCCS(=O)(=O)N1[C@@H]2CC[C@H]1C[C@@H](NC(=O)c1cc(C3CC3)on1)C2 | 7.76 |
| C[C@H]1C[C@@H](NC(=O)c2cc(C3CC3)on2)CCN1S(=O)(=O)N1CCNCC1 | 8.37 |
| CNCCCS(=O)(=O)N1[C@@H]2CC[C@H]1C[C@@H](NC(=O)c1cc(C3CC3)on1)C2 | 7.95 |
| C[C@@H]1C[C@H](NC(=O)c2cc(C3CC3)on2)CCN1S(=O)(=O)CC1CCN(CCc2ccccc2)CC1 | 8.89 |

Asked: Supply pIC50 value. Item: C[C@H]1C[C@@H](NC(=O)c2cc(C3CC3)on2)CCN1S(=O)(=O)CC1CCN(Cc2ccccc2)CC1
Given back: 8.72

Asked: Supply pIC50 value. Item: C[C@@H]1C[C@H](NC(=O)c2cc(C3CC3)on2)CCN1S(=O)(=O)CC1CCN(Cc2ccccc2)CC1
Given back: 8.10

The origin of these recorded values is patent US10577363B2.
